FYI, the data here is from PubChem BioAssay (NCI).

I'd be grateful if you could share measured log10 of TGI for these entries.
Test system: U251 CNS
procedure details: NCI tumour cell line growth inhibition, 48 h
Would you kindly interpret these values as log10 of TGI expressed in µM?

Prompt: Tell us which log10 of TGI value is on record for Cc1ccc(C)c(N2CCN(c3ccncc3N)CC2)c1
Response: 1.99

Prompt: Please report log10 of TGI for the following molecule: C1CCC(CC2CCC(NC3=NCCO3)CC2)CC1 (stereo unspecified)
Response: 1.52

Prompt: State its log10 of TGI for this molecule: O=C1CCNC/C1=C\c1ccccc1
Response: 1.58

Prompt: Answer with reported log10 of TGI of COc1cccc(/C=C\C(=O)c2ccccc2)c1
Response: 1.15

Prompt: Give me measured log10 of TGI, please, for this molecule: O=C(CC1(O)C(=O)Nc2ccc(Cl)cc21)c1ccc(C(=O)NCC2CCC3(CC2)OOC2(CCCCC2)OO3)cc1 (stereo unspecified)
Response: 0.53

Prompt: Return reported log10 of TGI. Input molecule: COc1cc2c(c3oc4c(O)cccc4c(=O)c13)CC(C(C)(O)CCl)O2 (stereo unspecified)
Response: 1.10

Prompt: Give the measured log10 of TGI for N#CC1=C(N)OC2=C(CCCc3ccc([N+](=O)[O-])cc32)C1c1ccc(Cl)cc1 (stereo unspecified)
Response: 1.45

Prompt: Give a short answer stating reported log10 of TGI for O=[N+]([O-])C(/C=C(\Cl)[N+](=O)[O-])=C(N1CCOCC1)N1CCOCC1 .
Response: 1.67

Prompt: Give the reported value of log10 of TGI for this record: CCNC(=O)O/N=C1\CCC2[C@@H]3CC=C4C[C@@H](OC(=O)NCC)CC[C@]4(C)C3CC[C@]12C (stereo partly specified)
Response: 0.98

Prompt: Supply measured log10 of TGI of CCCCCCCC(=O)NC(C)(C)C(=O)NCC(=O)NC(CC(C)C)C(=O)NC(C)(C)C(=O)NCC(=O)NCC(=O)NC(CC(C)C)C(=O)NC(C)(C)C(=O)NCC(=O)NC(C(=O)NC(CO)CC(C)C)C(C)CC (stereo unspecified) in your reply.
Response: 0.73

Prompt: State its log10 of TGI: CCOC(=O)c1c(CN2CCCCC2)nc2ccc(Cl)cc2c1-c1ccccc1
Response: 1.61
